assay: 8-day repeat-dose study, tolerability (blood chemistry, hematology, adverse events) in tumor-bearing dogs; assay type: in vivo, dog; details: Dog 4; Post: 30 min after last injection on day 8; 10 mg s.c. once daily for 8 days
Where a SMILES comes first, the peptide text is derived from it. [ ]: non-standard residue; d: D form. Hyp = O=C(O)[C@@H]1C[C@@H](O)CN1
measured-quantity: BUN (mg/dL)
# unit: mg/dL | format: bare number

Q: For the molecule CC(C)[C@@H]1NC(=O)[C@@H]2C[C@@H](O)CN2C(=O)[C@H]([C@@H](C)O)NC(=O)[C@H](CCCCN)NC(=O)[C@H](CCC(=O)O)NC(=O)[C@H](CC(N)=O)NC(=O)CNC(=O)[C@@H]2C[C@@H](O)CN2C(=O)[C@H](CC(N)=O)NC1=O [AFPep] (cyclo(EKT[Hyp]VN[Hyp]GN)) , what BUN is on record?
A: 24

====

assay: 8-day repeat-dose study, tolerability (blood chemistry, hematology, adverse events) in tumor-bearing dogs; type: in vivo, dog; conditions: Dog 4; Post: 30 min after last injection on day 8; 10 mg s.c. once daily for 8 days
Where a SMILES comes first, the peptide text is derived from it. [ ]: non-standard residue; d: D form. Hyp = O=C(O)[C@@H]1C[C@@H](O)CN1
measured-quantity: Bicarbonate (mmol/L)
# unit: mmol/L | format: bare number

Q: For the compound CC(C)[C@@H]1NC(=O)[C@@H]2C[C@@H](O)CN2C(=O)[C@H]([C@@H](C)O)NC(=O)[C@H](CCCCN)NC(=O)[C@H](CCC(=O)O)NC(=O)[C@H](CC(N)=O)NC(=O)CNC(=O)[C@@H]2C[C@@H](O)CN2C(=O)[C@H](CC(N)=O)NC1=O [AFPep] (cyclo(EKT[Hyp]VN[Hyp]GN)) , what Bicarbonate is on record?
A: 17

====

test: 8-day repeat-dose study, tolerability (blood chemistry, hematology, adverse events) in tumor-bearing dogs; type: in vivo, dog; conditions: Dog 4; Post: 30 min after last injection on day 8; 10 mg s.c. once daily for 8 days
Where a SMILES comes first, the peptide text is derived from it. [ ]: non-standard residue; d: D form. Hyp = O=C(O)[C@@H]1C[C@@H](O)CN1
measured-quantity: Bilirubin Conj. (mg/dL)
# unit: mg/dL | format: bare number

Q: For the molecule CC(C)[C@@H]1NC(=O)[C@@H]2C[C@@H](O)CN2C(=O)[C@H]([C@@H](C)O)NC(=O)[C@H](CCCCN)NC(=O)[C@H](CCC(=O)O)NC(=O)[C@H](CC(N)=O)NC(=O)CNC(=O)[C@@H]2C[C@@H](O)CN2C(=O)[C@H](CC(N)=O)NC1=O [AFPep] (cyclo(EKT[Hyp]VN[Hyp]GN)) , what Bilirubin Conj. is on record?
A: 0.1

====

test: 8-day repeat-dose study, tolerability (blood chemistry, hematology, adverse events) in tumor-bearing dogs; assay type: in vivo, dog; details: Dog 2; Post: 30 min after last injection on day 8; 10 mg s.c. once daily for 8 days
Where a SMILES comes first, the peptide text is derived from it. [ ]: non-standard residue; d: D form. Hyp = O=C(O)[C@@H]1C[C@@H](O)CN1
measured-quantity: MCV (fL)
# unit: fL | format: bare number

Q: For the compound CC(C)[C@@H]1NC(=O)[C@@H]2C[C@@H](O)CN2C(=O)[C@H]([C@@H](C)O)NC(=O)[C@H](CCCCN)NC(=O)[C@H](CCC(=O)O)NC(=O)[C@H](CC(N)=O)NC(=O)CNC(=O)[C@@H]2C[C@@H](O)CN2C(=O)[C@H](CC(N)=O)NC1=O [AFPep] (cyclo(EKT[Hyp]VN[Hyp]GN)) , what MCV is on record?
A: 65

====

experiment: 8-day repeat-dose study, tolerability (blood chemistry, hematology, adverse events) in tumor-bearing dogs; format: in vivo, dog; conditions: Dog 4; Post: 30 min after last injection on day 8; 10 mg s.c. once daily for 8 days
Where a SMILES comes first, the peptide text is derived from it. [ ]: non-standard residue; d: D form. Hyp = O=C(O)[C@@H]1C[C@@H](O)CN1
measured-quantity: Glucose (mg/dL)
# unit: mg/dL | format: bare number

Q: For the compound CC(C)[C@@H]1NC(=O)[C@@H]2C[C@@H](O)CN2C(=O)[C@H]([C@@H](C)O)NC(=O)[C@H](CCCCN)NC(=O)[C@H](CCC(=O)O)NC(=O)[C@H](CC(N)=O)NC(=O)CNC(=O)[C@@H]2C[C@@H](O)CN2C(=O)[C@H](CC(N)=O)NC1=O [AFPep] (cyclo(EKT[Hyp]VN[Hyp]GN)) , what Glucose is on record?
A: 92

====

assay: 8-day repeat-dose study, tolerability (blood chemistry, hematology, adverse events) in tumor-bearing dogs; type: in vivo, dog; conditions: Dog 4; Post: 30 min after last injection on day 8; 10 mg s.c. once daily for 8 days
Where a SMILES comes first, the peptide text is derived from it. [ ]: non-standard residue; d: D form. Hyp = O=C(O)[C@@H]1C[C@@H](O)CN1
measured-quantity: MCV (fL)
# unit: fL | format: bare number

Q: For the molecule CC(C)[C@@H]1NC(=O)[C@@H]2C[C@@H](O)CN2C(=O)[C@H]([C@@H](C)O)NC(=O)[C@H](CCCCN)NC(=O)[C@H](CCC(=O)O)NC(=O)[C@H](CC(N)=O)NC(=O)CNC(=O)[C@@H]2C[C@@H](O)CN2C(=O)[C@H](CC(N)=O)NC1=O [AFPep] (cyclo(EKT[Hyp]VN[Hyp]GN)) , what MCV is on record?
A: 62

====

experiment: 8-day repeat-dose study, tolerability (blood chemistry, hematology, adverse events) in tumor-bearing dogs; type: in vivo, dog; conditions: Dog 5; Post: 30 min after last injection on day 8; 10 mg s.c. once daily for 8 days
Where a SMILES comes first, the peptide text is derived from it. [ ]: non-standard residue; d: D form. Hyp = O=C(O)[C@@H]1C[C@@H](O)CN1
measured-quantity: WBC

Q: For the compound CC(C)[C@@H]1NC(=O)[C@@H]2C[C@@H](O)CN2C(=O)[C@H]([C@@H](C)O)NC(=O)[C@H](CCCCN)NC(=O)[C@H](CCC(=O)O)NC(=O)[C@H](CC(N)=O)NC(=O)CNC(=O)[C@@H]2C[C@@H](O)CN2C(=O)[C@H](CC(N)=O)NC1=O [AFPep] (cyclo(EKT[Hyp]VN[Hyp]GN)) , what WBC is on record?
A: 7 10^3/µL

====

experiment: 8-day repeat-dose study, tolerability (blood chemistry, hematology, adverse events) in tumor-bearing dogs; assay type: in vivo, dog; details: Dog 3; Post: 30 min after last injection on day 8; 10 mg s.c. once daily for 8 days
Where a SMILES comes first, the peptide text is derived from it. [ ]: non-standard residue; d: D form. Hyp = O=C(O)[C@@H]1C[C@@H](O)CN1
measured-quantity: AST (U/L)
# unit: U/L | format: bare number

Q: For the molecule CC(C)[C@@H]1NC(=O)[C@@H]2C[C@@H](O)CN2C(=O)[C@H]([C@@H](C)O)NC(=O)[C@H](CCCCN)NC(=O)[C@H](CCC(=O)O)NC(=O)[C@H](CC(N)=O)NC(=O)CNC(=O)[C@@H]2C[C@@H](O)CN2C(=O)[C@H](CC(N)=O)NC1=O [AFPep] (cyclo(EKT[Hyp]VN[Hyp]GN)) , what AST is on record?
A: 15

====

experiment: 8-day repeat-dose study, tolerability (blood chemistry, hematology, adverse events) in tumor-bearing dogs; type: in vivo, dog; conditions: Dog 6; Post: 30 min after last injection on day 8; 10 mg s.c. once daily for 8 days
Where a SMILES comes first, the peptide text is derived from it. [ ]: non-standard residue; d: D form. Hyp = O=C(O)[C@@H]1C[C@@H](O)CN1
measured-quantity: RBC

Q: For the molecule CC(C)[C@@H]1NC(=O)[C@@H]2C[C@@H](O)CN2C(=O)[C@H]([C@@H](C)O)NC(=O)[C@H](CCCCN)NC(=O)[C@H](CCC(=O)O)NC(=O)[C@H](CC(N)=O)NC(=O)CNC(=O)[C@@H]2C[C@@H](O)CN2C(=O)[C@H](CC(N)=O)NC1=O [AFPep] (cyclo(EKT[Hyp]VN[Hyp]GN)) , what RBC is on record?
A: 6 10^6/µL

====

assay: 8-day repeat-dose study, tolerability (blood chemistry, hematology, adverse events) in tumor-bearing dogs; type: in vivo, dog; details: Dog 6; Post: 30 min after last injection on day 8; 10 mg s.c. once daily for 8 days
Where a SMILES comes first, the peptide text is derived from it. [ ]: non-standard residue; d: D form. Hyp = O=C(O)[C@@H]1C[C@@H](O)CN1
measured-quantity: HCT (%)
# unit: % | format: bare number

Q: For the compound CC(C)[C@@H]1NC(=O)[C@@H]2C[C@@H](O)CN2C(=O)[C@H]([C@@H](C)O)NC(=O)[C@H](CCCCN)NC(=O)[C@H](CCC(=O)O)NC(=O)[C@H](CC(N)=O)NC(=O)CNC(=O)[C@@H]2C[C@@H](O)CN2C(=O)[C@H](CC(N)=O)NC1=O [AFPep] (cyclo(EKT[Hyp]VN[Hyp]GN)) , what HCT is on record?
A: 43

Values compiled from paper PMC9913752.
